Test system: RXF 393
Experiment: NCI tumour cell line growth inhibition, 48 h
Activity calls are given as the source filed them. No stated cut-off is given here; in the data, active = GI50 up to about 1.1 µM and inactive = higher.
Would you mind answering with one of these outcomes? active, inactive

Worked examples follow.
Cc1cc2c(ccc[n+]2[O-])[n+]([O-])c1 | inactive
CCCCC1(N=[N+]=[N-])C(=O)c2cccc3c2N(CCC3)C1=O (centres undefined) | inactive
COc1cc([C@@H]2c3cc4c(cc3[C@@H](c3c(O)cc(O)c5c3O[C@H](c3ccc(O)c(O)c3)[C@@H](O)C5)[C@H]3COC(=O)[C@H]23)OCO4)cc(OC)c1O | inactive
N/C(=N\O)N/N=C/c1ccc2c(c1)OCO2 | inactive
N=c1c2c(=S)n(-c3ccccc3)c(=S)n(-c3ccccc3)c2nc(SCCCN2CCCCC2)n1-c1ccccc1 | inactive

Enquiry: Hi, sorry to bother you, what did the test record for c1ccc([P+](CC[P+](c2ccccc2)(c2ccccc2)c2ccccc2)(c2ccccc2)c2ccccc2)cc1 ?
Return: inactive

Enquiry: Hi, sorry to bother you, what did the test record for CC(=O)NNc1nc(C)c(C(/C=C/c2ccc(/C=C/C(=N\NC(=O)c3ccncc3)c3sc(NNC(C)=O)nc3C)cc2)=N/NC(=O)c2ccncc2)s1 ?
Return: inactive

---

Tested on: UACC-62
Assay: NCI tumour cell line growth inhibition, 48 h
The source made the active and inactive calls. Rule as the data show it: active = GI50 up to about 1.1 µM and inactive = higher.
Task for the reader: assign each of the following compounds its reported GI50.

Examples from the recorded data:
COCCO | > 100 µM (inactive)
O=C(O)CCC(O)=C1S(=O)(=O)OCCOS1(=O)=O | > 100 µM (inactive)
CCOC1OC(COC(=O)C(C)(C)C)C(O)CC1n1cc(C)c(=O)[nH]c1=O (centres undefined) | > 100 µM (inactive)

Could you report GI50 for every entry in the following list?
1. CC(=O)N1c2ccccc2C23CCN4CC5=CCOC(O)C(C5CC42)C13 (centres undefined)
2. O=c1[nH]c2cccccc-2c1-c1nc2ccccc2[nH]1
3. CCOC(=O)c1[nH]c(-c2[nH]c(-c3[nH]c(-c4[nH]c(C(=O)OCC)c(C)c4C(=O)OCC)c(C(=O)OCC)c3C)c(C)c2C(=O)OCC)c(C(=O)OCC)c1C
4. CCOC(=O)C1=c2[nH]c3cccc4cccc(c43)n2C=C(C(C)=O)C1CC(C)=O (centres undefined)
5. C=CCOC(C)n1c(C)cc(=O)n(C(C)OCC=C)c1=O (centres undefined)
6. C=C(C)[C@@H]1CC[C@]2(C(=O)O)CC[C@]3(C)[C@H](CCC4[C@@]5(C)CC[C@H](C(=O)/C=C/c6ccc(O)c(O)c6)C(C)(C)[C@@H]5CC[C@]43C)[C@@H]12 (some centres undefined)

Return:
1. > 100 µM (inactive)
2. 17.9 µM (inactive)
3. > 100 µM (inactive)
4. > 100 µM (inactive)
5. > 100 µM (inactive)
6. 3.77 µM (inactive)

---

System: MCF7
Experiment: NCI tumour cell line growth inhibition, 48 h
Active and inactive are the calls of the source. Rule as the data show it: active = GI50 up to about 1.1 µM and inactive = higher.
Would you mind answering with one of these outcomes? class 1 (active), class 0 (inactive)

Worked examples follow.
CC1=NN(C(=O)CC(=O)N(C(=O)c2ccccc2)c2ccc(Cl)cc2)C(=O)C1/N=N/c1ccc([N+](=O)[O-])cc1 (stereo not drawn) | class 0
Nc1ccc(-c2nc3ccc(F)cc3s2)cc1Cl | class 1

// switching to the query compound
Enquiry: Hi, sorry to bother you, what did the test record for COC(=O)c1c(OC)cc2cc3c(c(O)c2c1C)C(=O)C1(O)C(=O)C=C(OC)C(OC(=O)CC(C)N)=C1C3=O (stereo not drawn) ?
Return: class 0

---

Tested on: 786-0
Assay: NCI tumour cell line growth inhibition, 48 h
Calls of active or inactive are those of the source. Rule as the data show it: active = GI50 up to about 1.1 µM and inactive = higher.
quantityMeasured: GI50

Oc1c2cc(Cl)cc1COCc1cc(Cl)cc(c1O)COCc1cc(Cl)cc(c1O)COC2 | 9.42 µM (inactive)
Cc1[nH]c2ncn(/N=C/c3ccccc3O)c(=N)c2c1Cc1ccccc1 | 81.8 µM (inactive)
CN(C)c1ccc(/C=C(\C#N)c2nc(-c3cc4ccccc4oc3=O)cs2)cc1 | 7.23 µM (inactive)
CCCCCCCN1C(=O)C(O)(c2ccc(C3(O)C(=O)N(CCCCCCC)c4ccccc43)s2)c2ccccc21 (stereo not given) | 1.91 µM (inactive)
Cc1ccc(Cc2nn(C)c(=O)n2N)cc1 | > 100 µM (inactive)
Cc1nc2ccccc2n1Cc1nnc(N)o1 | > 100 µM (inactive)

Could you report GI50 for every entry in the following list?
1. O=c1oc2cc(O)ccc2c(O)c1C(c1ccccc1F)c1c(O)c2ccc(O)cc2oc1=O
2. COc1ccc(C(=O)/C=C/c2ccc(OCCCCCCCCCCOc3ccc(/C=C/C(=O)c4ccc(OC)c(OC)c4)cc3)cc2)c(OC)c1

Return:
1: > 100 µM (inactive); 2: > 100 µM (inactive)

Could you report GI50 for every entry in the following list?
1. N#Cc1c(CC(=O)O)cc(=O)n2c1[nH]c1ccccc12
2. COc1ccc(/C=N/c2c(O)ccc3ccccc23)cc1OC

Return:
["> 100 µM (inactive)", "> 100 µM (inactive)"]

---

System: COLO 205
Assay: NCI tumour cell line growth inhibition, 48 h
Active and inactive are the calls of the source. Cut-off read from the data, not from the text of the source: active = GI50 up to about 1.1 µM and inactive = higher.
quantityMeasured: GI50

Examples from the recorded data:
CCN(CC)CCCNc1nccc2c(C)c3c(cc12)c1cnccc1n3C | 0.249 µM (active)
Cc1c(C(=O)NCCO)[n+]([O-])c2cc(Cl)ccc2[n+]1[O-] | > 100 µM (inactive)
COc1ccc(C(=O)/C=C/c2ccc(OCCCOc3ccc(/C=C/C(=O)c4ccc(OC)c(OC)c4)cc3)cc2)cc1OC | > 100 µM (inactive)

Could you report GI50 for every entry in the following list?
1. O=c1n(N=[S+]([O-])(c2ccccc2)c2ccccc2)c(=O)n2n1C1C=CC2CC1
2. O=C1CCC(c2ccccc2)=NN1c1nsc2ccccc12

Return:
1: > 100 µM (inactive); 2: > 100 µM (inactive)

---

System: NCI-H23
Assay: NCI tumour cell line growth inhibition, 48 h
Activity calls are given as the source filed them. Rule as the data show it: active = GI50 up to about 1.1 µM and inactive = higher.
Would you mind answering with one of these outcomes? yes (1) (active), no (0) (inactive)

Enquiry: Hi, sorry to bother you, what did the test record for c1ccc([P+](CC[P+](c2ccccc2)(c2ccccc2)c2ccccc2)(c2ccccc2)c2ccccc2)cc1 ?
Return: no (0)

Enquiry: Hi, sorry to bother you, what did the test record for COc1cc(C(=O)NC2CCc3cc(OC)c(OC)c(OC)c3-c3ccc(OC)c(=O)cc32)cc(OC)c1OC (stereo not given) ?
Return: yes (1)

Enquiry: Hi, sorry to bother you, what did the test record for COc1ccccc1C(=O)NCC1CCCN2CCCCC12 (stereo not given) ?
Return: no (0)

Enquiry: Hi, sorry to bother you, what did the test record for CC(=O)NNc1nc(C)c(C(/C=C/c2ccc(/C=C/C(=N\NC(=O)c3ccncc3)c3sc(NNC(C)=O)nc3C)cc2)=N/NC(=O)c2ccncc2)s1 ?
Return: no (0)

Enquiry: Hi, sorry to bother you, what did the test record for CN(C)c1ccc(/C=C2/SC(=S)NC2=O)cc1 ?
Return: no (0)

Enquiry: Hi, sorry to bother you, what did the test record for COc1ccc(N2C(=O)C3c4[nH]c5ccc(OCc6ccccc6)cc5c4C4CCC(C(C)C)CC4C3C2=O)cc1 (stereo not given) ?
Return: no (0)

Enquiry: Hi, sorry to bother you, what did the test record for Cc1ccc2c(O)cc(-c3ccc(Cl)s3)nc2n1 ?
Return: yes (1)

---

Test system: RPMI-8226
Assay: NCI tumour cell line growth inhibition, 48 h
Calls of active or inactive are those of the source. Cut-off read from the data, not from the text of the source: active = GI50 up to about 1.1 µM and inactive = higher.
Would you mind answering with one of these outcomes? active, inactive

Worked examples follow.
c1ccc2c(c1)CCc1c-2n(CCN2CCCCC2)c2ccccc12 | inactive
COc1cccc(Nc2n[nH]c(NS(=O)(=O)c3cc(C)c(Cl)cc3S)n2)c1 | inactive
CCSC(=O)/C=C1\CN(C(=O)OC(C)(C)C)C1C(=O)OC(C)(C)C (stereo unspecified) | inactive

Enquiry: Hi, sorry to bother you, what did the test record for CC1[C@@H]2CC=C3C4CCC5Cc6nc7c(nc6C[C@@]5(C)C4CC(=O)[C@]32CO[C@@]1(O)C(O)CC(C)(C)O)CC1CCC2C3=C[C@H]4O[C@@]5(O[C@@](C)(CO)C[C@@H]5O)C(C)[C@@]4(O)[C@]3(C)[C@@H](O)CC2[C@]1(C)C7 (stereo partly specified) ?
Return: active

Enquiry: Hi, sorry to bother you, what did the test record for C=CCN(N=O)C(=O)NCCCC(NC(C)=O)C(=O)NCc1ccccc1 (stereo unspecified) ?
Return: inactive

Enquiry: Hi, sorry to bother you, what did the test record for CN(C)Cc1cc(C(C)(C)C)ccc1-c1ccc(C(C)(C)C)cc1CN(C)C ?
Return: inactive

Enquiry: Hi, sorry to bother you, what did the test record for Cc1nc2c(=O)n3c4c(cccc4c2o1)CCC3 ?
Return: inactive

Enquiry: Hi, sorry to bother you, what did the test record for Nc1c2c(nc3ccccc13)-c1ccccc1CCC2 ?
Return: inactive

Enquiry: Hi, sorry to bother you, what did the test record for N#Cc1c(CC(=O)O)cc(=O)n2c1[nH]c1ccccc12 ?
Return: inactive

Enquiry: Hi, sorry to bother you, what did the test record for O=C1c2ccccc2C(=O)c2cc3c(cc21)C[S+]([O-])C3 ?
Return: inactive
